# reported pEC50; entries follow
Target: T1, human SLC34A2 (human, UniProt O95436 1-690)
T1 construct: whole, on cells; also called human solute carrier 34 A2; NaPi2b
T1 sequence (looked up): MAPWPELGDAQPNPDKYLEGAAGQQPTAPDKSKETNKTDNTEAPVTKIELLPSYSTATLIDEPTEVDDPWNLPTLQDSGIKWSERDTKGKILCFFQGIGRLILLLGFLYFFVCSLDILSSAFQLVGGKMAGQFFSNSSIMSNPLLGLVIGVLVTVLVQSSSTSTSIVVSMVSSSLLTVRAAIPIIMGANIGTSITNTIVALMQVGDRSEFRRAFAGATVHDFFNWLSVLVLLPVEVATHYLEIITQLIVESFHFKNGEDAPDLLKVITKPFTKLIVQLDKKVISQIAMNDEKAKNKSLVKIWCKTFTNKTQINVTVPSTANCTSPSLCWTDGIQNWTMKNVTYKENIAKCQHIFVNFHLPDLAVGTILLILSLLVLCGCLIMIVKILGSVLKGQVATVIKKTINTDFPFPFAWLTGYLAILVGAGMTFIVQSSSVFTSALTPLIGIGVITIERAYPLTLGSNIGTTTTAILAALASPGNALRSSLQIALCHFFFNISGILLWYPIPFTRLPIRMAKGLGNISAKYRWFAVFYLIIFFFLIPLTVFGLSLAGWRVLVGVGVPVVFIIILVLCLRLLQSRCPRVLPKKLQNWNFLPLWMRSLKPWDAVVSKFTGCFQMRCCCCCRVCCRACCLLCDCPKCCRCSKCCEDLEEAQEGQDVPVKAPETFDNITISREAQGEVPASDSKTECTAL
Assay: FACS, OVCAR3 cells
// pEC50 here means minus log10 of the molar concentration (mol/L)

For orientation, consider the following solved cases.
{"binder": "xi30H9B8F9 hIgG1 (antibody, V domains shown, chimeric, hIgG1) VH: QVQLQQPGAELVKPGASVKMSCKTSGYTFTTNNMHWVKQTPGQGLEWIGAIYPGNGATAYNQKFKGKATLTADKSSSTAYMQLSSLTSEASAVYYCARGMYGHGAMDYWGQGTSVIVSS VL: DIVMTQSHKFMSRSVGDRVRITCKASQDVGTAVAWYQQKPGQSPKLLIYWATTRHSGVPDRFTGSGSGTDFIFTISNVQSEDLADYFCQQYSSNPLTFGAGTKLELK", "observed_measurement": 9.13}
{"binder": "62G10E4G8.p3.z8 hIgG1 (antibody, V domains shown, humanized hIgG1) VH: QVQLVQSGAEVKKPGASVKVSCKASGYTFPSYITHWVRQAPGQGLEWIGAIYPGNADTSYIQKFKGRVTMTADKSTSTVYMELSSLRSEDTAVYYCARGTYGTSAWFTYWGQGTLVTVSS VL: EIVLTQSPATLSASPGERATLSCRARQNIGNNLYWYQQKPGQSPRLLIKYASQSISGIPSRFSGSGSGTDFTLTISSVQSEDFAVYFCQQSFSWPLTFGAGTKLEIK", "observed_measurement": 8.06}
{"binder": "xi91C9F1 hIgG1 (antibody, V domains shown, chimeric, hIgG1) VH: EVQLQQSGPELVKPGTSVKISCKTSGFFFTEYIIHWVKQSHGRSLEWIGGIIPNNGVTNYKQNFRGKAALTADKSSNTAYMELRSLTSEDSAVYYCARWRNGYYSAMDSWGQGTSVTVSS VL: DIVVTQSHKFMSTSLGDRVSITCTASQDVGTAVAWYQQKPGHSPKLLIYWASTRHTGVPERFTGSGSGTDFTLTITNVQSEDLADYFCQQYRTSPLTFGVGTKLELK", "observed_measurement": 8.60}
{"binder": "91C9F1.p1 hIgG1 (antibody, V domains shown, PTM-derisked chimeric, hIgG1; also called 91C9F1.pl hIgG1) VH: EVQLQQSGPELVKPGTSVKISCKTSGFFFTEYIIHWVKQSHGRSLEWIGGIIPNNDVTNYKQNFRGKAALTADKSSNTAYMELRSLTSEDSAVYYCARWRNAYYSAMDSWGQGTSVTVSS VL: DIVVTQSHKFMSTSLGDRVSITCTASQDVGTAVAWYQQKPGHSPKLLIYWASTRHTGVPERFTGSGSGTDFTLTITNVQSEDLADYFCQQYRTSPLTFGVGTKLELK", "observed_measurement": 8.96}

Enquiry: Could you tell me which pEC50 is on file for xi62G10E4G8 hIgG1 (antibody, V domains shown, chimeric, hIgG1) VH: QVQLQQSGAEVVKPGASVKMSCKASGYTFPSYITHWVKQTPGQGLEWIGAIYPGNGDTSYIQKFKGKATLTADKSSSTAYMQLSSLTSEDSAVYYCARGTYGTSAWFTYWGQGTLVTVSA VL: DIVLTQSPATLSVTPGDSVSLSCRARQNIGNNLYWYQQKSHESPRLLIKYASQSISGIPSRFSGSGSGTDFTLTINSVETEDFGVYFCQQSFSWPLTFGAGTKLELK ?
Return: 8.43
